# target desc: PE-labeled human PD-L1-Ig binding to Jurkat cell line over-expressing human PD-1 (Jurkat-PD-1) (Homo sapiens, UniProt Q15116)
# Construct: expressed in transfected cells; host or cells: Jurkat
# Sequence (Q15116 25-288): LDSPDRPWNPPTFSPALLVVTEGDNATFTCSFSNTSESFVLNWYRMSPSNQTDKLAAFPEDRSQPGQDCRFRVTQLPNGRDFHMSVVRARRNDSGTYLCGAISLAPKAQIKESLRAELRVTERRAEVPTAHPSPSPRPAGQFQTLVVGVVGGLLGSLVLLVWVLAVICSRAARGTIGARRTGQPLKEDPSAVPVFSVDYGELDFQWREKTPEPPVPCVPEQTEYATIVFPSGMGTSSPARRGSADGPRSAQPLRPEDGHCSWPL
# experiment summary: Jurkat-PD-1 Cell Binding High-Content Screening Assay (CBA): Method 1
# recorded conditions: Jurkat-hPD-1 cells, PE-labeled PD-L1-Ig 20 nM final; read-out: Jurkat HPDL1 PD1 IC50 (uM) (Method 1)
Bridge positions count the residues as written; N and C are the ends. Square brackets hold non-standard residues; d marks the D form. Peptide text beside a SMILES is read from it. Bip = N[C@@H](Cc1ccc(-c2ccccc2)cc1)C(=O)O; 3Pal = N[C@@H](Cc1cccnc1)C(=O)O; NMeA = CN[C@@H](C)C(=O)O; Orn = NCCC[C@H](N)C(=O)O
endpoint label: IC50 (µM)
Could you give me the number in µM? Just the number is fine.

Please report the recorded IC50 for CC(C)C[C@@H]1NC(=O)[C@H](Cc2c[nH]c3ccccc23)NC(=O)[C@H](CC(=O)O)NC(=O)[C@H](Cc2ccc(O)cc2)NC(=O)[C@H](Cc2cccnc2)NC(=O)CSC[C@@H](C(=O)NCC(N)=O)NC(=O)[C@H](CO)NC(=O)[C@H](C(C)C)NC(=O)[C@H](CC(C)C)NC(=O)[C@H](CC(N)=O)NC(=O)[C@@H](C)NC(=O)[C@H](C)N(C)C(=O)[C@H](C(C)C)NC(=O)[C@H](Cc2ccc(-c3ccccc3)cc2)NC1=O [Compound 1743] ({CH2CO}-[3Pal]YDWL[Bip]V[NMeA][dA]NLVSCG-NH2; thioether N-14) .
0.02

Please report the recorded IC50 for CC(C)C[C@@H]1NC(=O)[C@H](CCCN)NC(=O)[C@@H](CC(C)C)NC(=O)[C@H](C)N(C)C(=O)[C@H](CCC(=O)O)NC(=O)[C@H](Cc2ccc(-c3ccccc3)cc2)NC(=O)[C@H](C(C)C)NC(=O)[C@H](Cc2c[nH]c3ccccc23)NC(=O)[C@H](CC(=O)O)NC(=O)[C@H](Cc2ccc(O)cc2)NC(=O)[C@H](CC(N)=O)NC(=O)CSC[C@@H](C(=O)N[C@@H](C)C(N)=O)NC(=O)[C@H]([C@@H](C)O)NC(=O)[C@H](C(C)C)NC1=O [Compound 1239] ({CH2CO}-NYDWV[Bip]E[NMeA][dL][Orn]LVTCA-NH2; thioether N-14) .
0.08

---

# target desc: PE-labeled human PD-L1-Ig binding to Jurkat cell line over-expressing human PD-1 (Jurkat-PD-1) (Homo sapiens)
# Construct: expressed in transfected cells; host or cells: Jurkat
# experiment summary: Jurkat-PD-1 Cell Binding High-Content Screening Assay (CBA): Method 1
# recorded conditions: Jurkat-hPD-1 cells, PE-labeled PD-L1-Ig 20 nM final; read-out: Jurkat HPDL1 PD1 IC50 (uM) (Method 1)
Bridge positions count the residues as written; N and C are the ends. Square brackets hold non-standard residues; d marks the D form. Peptide text beside a SMILES is read from it. Bip = N[C@@H](Cc1ccc(-c2ccccc2)cc1)C(=O)O; Cit = NC(=O)NCCC[C@H](N)C(=O)O; NMeA = CN[C@@H](C)C(=O)O; Dab = NCC[C@H](N)C(=O)O
endpoint label: IC50 (µM)
Could you give me the number in µM? Just the number is fine.

Please report the recorded IC50 for CC(C)C[C@@H]1NC(=O)[C@H](CCCCN)NC(=O)[C@@H](CC(C)C)NC(=O)[C@H](C)N(C)C(=O)[C@H](CCCNC(=N)N)NC(=O)[C@H](Cc2ccc(-c3ccccc3)cc2)NC(=O)[C@H](C(C)C)NC(=O)[C@H](Cc2c[nH]c3ccccc23)NC(=O)[C@H](CC(=O)O)NC(=O)[C@H](Cc2ccc(O)cc2)NC(=O)[C@H](CC(N)=O)NC(=O)CSC[C@@H](C(=O)N[C@@H](CO)C(N)=O)NC(=O)[C@H]([C@@H](C)O)NC(=O)[C@H](C(C)C)NC1=O [Compound 1174] ({CH2CO}-NYDWV[Bip]R[NMeA][dL]KLVTCS-NH2; thioether N-14) .
0.06

Please report the recorded IC50 for CC(C)C[C@@H]1NC(=O)[C@H](CCN)NC(=O)[C@@H](CC(C)C)NC(=O)[C@H](C)N(C)C(=O)[C@H](CCCNC(N)=O)NC(=O)[C@H](Cc2ccc(-c3ccccc3)cc2)NC(=O)[C@H](C(C)C)NC(=O)[C@H](Cc2c[nH]c3ccccc23)NC(=O)[C@H](CC(=O)O)NC(=O)[C@H](Cc2ccc(O)cc2)NC(=O)[C@H](CCCCN)NC(=O)CSC[C@@H](C(=O)N[C@@H](C)C(N)=O)NC(=O)[C@H]([C@@H](C)O)NC(=O)[C@H](C(C)C)NC1=O [Compound 1348] ({CH2CO}-KYDWV[Bip][Cit][NMeA][dL][Dab]LVTCA-NH2; thioether N-14) .
0.05

Please report the recorded IC50 for CC(C)C[C@@H]1NC(=O)[C@H](CCCNC(=N)N)NC(=O)[C@@H](CC(C)C)NC(=O)[C@H](C)N(C)C(=O)[C@H](CCC(=O)O)NC(=O)[C@H](Cc2ccc(-c3ccccc3)cc2)NC(=O)[C@H](C(C)C)NC(=O)[C@H](Cc2c[nH]c3ccccc23)NC(=O)[C@H](CC(=O)O)NC(=O)[C@H](Cc2ccc(O)cc2)NC(=O)[C@H](Cc2ccccc2)NC(=O)CSC[C@@H](C(=O)N[C@@H](C)C(N)=O)NC(=O)[C@H]([C@@H](C)O)NC(=O)[C@H](C(C)C)NC1=O [Compound 1141] ({CH2CO}-FYDWV[Bip]E[NMeA][dL]RLVTCA-NH2; thioether N-14) .
0.04

Please report the recorded IC50 for CC(C)C[C@@H]1NC(=O)[C@H](CCCNC(=N)N)NC(=O)[C@@H](Cc2ccccc2)NC(=O)[C@H](C)N(C)C(=O)[C@H](CCCNC(=N)N)NC(=O)[C@H](Cc2ccc(-c3ccccc3)cc2)NC(=O)[C@H](C(C)C)NC(=O)[C@H](Cc2c[nH]c3ccccc23)NC(=O)[C@H](CC(=O)O)NC(=O)[C@H](Cc2ccc(O)cc2)NC(=O)[C@H](CC(N)=O)NC(=O)CSC[C@@H](C(=O)NCC(N)=O)NC(=O)[C@H](CO)NC(=O)[C@H](C(C)C)NC1=O [Compound 1032] ({CH2CO}-NYDWV[Bip]R[NMeA][dF]RLVSCG-NH2; thioether N-14) .
0.51

---

# target desc: PE-labeled human PD-L1-Ig binding to Jurkat cell line over-expressing human PD-1 (Jurkat-PD-1) (Homo sapiens, UniProt Q15116)
# Construct: expressed in transfected cells; host or cells: Jurkat
# experiment summary: Jurkat-PD-1 Cell Binding High-Content Screening Assay (CBA): Method 1
# recorded conditions: Jurkat-hPD-1 cells, PE-labeled PD-L1-Ig 20 nM final; read-out: Jurkat HPDL1 PD1 IC50 (uM) (Method 1)
Bridge positions count the residues as written; N and C are the ends. Square brackets hold non-standard residues; d marks the D form. Peptide text beside a SMILES is read from it. Bip = N[C@@H](Cc1ccc(-c2ccccc2)cc1)C(=O)O; NMeA = CN[C@@H](C)C(=O)O; Orn = NCCC[C@H](N)C(=O)O; Dab = NCC[C@H](N)C(=O)O
endpoint label: IC50 (µM)
Could you give me the number in µM? Just the number is fine.

Please report the recorded IC50 for CC(C)C[C@@H]1NC(=O)[C@H](Cc2c[nH]c3ccccc23)NC(=O)[C@H](CC(=O)O)NC(=O)[C@H](Cc2ccc(O)cc2)NC(=O)[C@H](Cc2ccccc2)NC(=O)CSC[C@@H](C(=O)N[C@@H](C)C(N)=O)NC(=O)[C@H](CO)NC(=O)[C@H](C(C)C)NC(=O)[C@H](CC(C)C)NC(=O)[C@H](CCC(=O)O)NC(=O)[C@@H](C)NC(=O)[C@H](C)N(C)C(=O)[C@H](CCC(=O)O)NC(=O)[C@H](Cc2ccc(-c3ccccc3)cc2)NC1=O [Compound 1792] ({CH2CO}-FYDWL[Bip]E[NMeA][dA]ELVSCA-NH2; thioether N-14) .
0.13

Please report the recorded IC50 for CC(C)C[C@@H]1NC(=O)[C@H](CCN)NC(=O)[C@@H](CC(C)C)NC(=O)[C@H](C)N(C)C(=O)[C@H](CCC(=O)O)NC(=O)[C@H](Cc2ccc(-c3ccccc3)cc2)NC(=O)[C@H](C(C)C)NC(=O)[C@H](Cc2c[nH]c3ccccc23)NC(=O)[C@H](CC(=O)O)NC(=O)[C@H](Cc2ccc(O)cc2)NC(=O)[C@H](CC(N)=O)NC(=O)CSC[C@@H](C(=O)N[C@@H](C)C(N)=O)NC(=O)[C@H](CCCN)NC(=O)[C@H](C(C)C)NC1=O [Compound 1238] ({CH2CO}-NYDWV[Bip]E[NMeA][dL][Dab]LV[Orn]CA-NH2; thioether N-14) .
0.03
